src = patent US20240059769A1

- studyTarget: T1, recombinant human IL-13 (human, UniProt P35225 35-146)
- T1 construct: also called rh-IL-13; hIL-13
- T1 sequence (P35225 35-146 limits assumed): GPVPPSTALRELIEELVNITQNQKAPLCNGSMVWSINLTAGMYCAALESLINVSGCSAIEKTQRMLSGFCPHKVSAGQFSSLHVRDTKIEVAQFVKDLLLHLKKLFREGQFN
- protocol: SPR
Below, each entry is listed with its recorded Kd.
Kindly answer with a numeric value in nM, unit omitted.

These solved cases illustrate the format of a correct answer.
binder | measured
BDG38.126 (antibody, V domains shown, IgG1) VH: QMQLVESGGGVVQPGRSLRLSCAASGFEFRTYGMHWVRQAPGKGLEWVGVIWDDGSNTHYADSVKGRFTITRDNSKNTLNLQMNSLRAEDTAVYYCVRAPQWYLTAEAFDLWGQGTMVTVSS VL: SYILTQPPSVSVAPGQTARITCGGNLIGAKLVHWYQQKPGQAPVLVIYDDSDRPSRIPERFSGSNIGNTATLTIERVEEGDEADYYCQVWDYSSDHMVFGGGTKLTVL | 0.0291
BDG38.139 (antibody, V domains shown, IgG1) VH: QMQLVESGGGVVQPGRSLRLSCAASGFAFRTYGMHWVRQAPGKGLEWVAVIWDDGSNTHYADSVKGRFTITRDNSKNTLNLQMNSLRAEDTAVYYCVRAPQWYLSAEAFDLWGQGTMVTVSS VL: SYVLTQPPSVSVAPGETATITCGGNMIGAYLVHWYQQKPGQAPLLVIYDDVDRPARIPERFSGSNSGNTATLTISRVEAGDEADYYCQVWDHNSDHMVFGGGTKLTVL | 0.0275
BDG38.131 (antibody, V domains shown, IgG1) VH: QMQLVESGGGVVQPGRSLTLSCAASGFEFRTYGMHWVRQAPGKGLEWVAVIWDDGSNTHYADSVKGRFTITRDNSKNTLNLQMNSLRAEDTAVYYCVRAPQWYLTAEAFDLWGQGTMVTVSS VL: SYILTQPPSVSVAPGETATITCGGNLIGAKLVHWYQQKPGQAPVLVIYDDSDRPSRIPERFSGSNIGNTATLTISDVEEGDEADYYCQVWDYYSNTMVFGGGTKLTVL | 0.179
BDG38.128 (antibody, V domains shown, IgG1) VH: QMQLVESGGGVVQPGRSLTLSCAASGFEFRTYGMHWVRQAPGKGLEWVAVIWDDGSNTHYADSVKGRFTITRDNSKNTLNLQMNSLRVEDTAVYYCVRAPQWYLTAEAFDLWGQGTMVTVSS VL: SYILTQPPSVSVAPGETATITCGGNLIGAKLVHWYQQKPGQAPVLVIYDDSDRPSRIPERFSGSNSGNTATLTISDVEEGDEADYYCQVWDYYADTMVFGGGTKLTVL | 0.0321

Prompt: Give Kd for BDG38.134 (antibody, V domains shown, IgG1) VH: QMQLVESGGGVVQPGQSLRLSCAASGFEFRTYGMHWVRQAPGKGLEWLAVIWYDGSNTHYADSVKGRFTITRDNSKNTLNLQMNSLRAEDTAVYYCVRAPQWYNSAEAFDLWGQGTMVTVSS VL: SYVLTQPPSVSVAPGQTARITCGGNLIGARLVHWYQQKPGQAPVLVIYDDSDRPSHIPERFSGSNSGNTATLTISRVEAGDEADYYCQVWDYSADTMVFGGGTKLTVL
Response: 0.507

Prompt: Give Kd for BDG38.132 (antibody, V domains shown, IgG1) VH: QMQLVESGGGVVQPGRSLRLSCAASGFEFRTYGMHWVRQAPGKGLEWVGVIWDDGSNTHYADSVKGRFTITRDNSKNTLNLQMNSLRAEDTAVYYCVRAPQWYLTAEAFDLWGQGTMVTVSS VL: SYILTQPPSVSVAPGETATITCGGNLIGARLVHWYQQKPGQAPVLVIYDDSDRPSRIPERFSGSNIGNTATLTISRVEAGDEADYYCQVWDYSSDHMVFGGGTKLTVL
Response: 0.0178

Prompt: Give Kd for BDG38.125 (antibody, V domains shown, IgG1) VH: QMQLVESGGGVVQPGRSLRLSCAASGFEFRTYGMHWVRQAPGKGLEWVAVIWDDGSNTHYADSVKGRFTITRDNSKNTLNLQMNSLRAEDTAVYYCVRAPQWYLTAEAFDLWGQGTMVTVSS VL: SYVLTQPPSVSVAPGETATITCGGNLIGARLVHWYQQKPGQAPVLVIYDDSDRPSRIPERFSGSNIGNTATLTIERVEEGDEADYYCQVWDYSSDHMVFGGGTKLTVL
Response: 0.00778
